Biological target: GST-RIPK1 (recombinant GST-RIPK1 kinase domain (residues 1-327)) (Homo sapiens)
Construct: recombinant GST-RIPK1 kinase domain (residues 1-327) enzyme
Sequence (Q13546 1-327): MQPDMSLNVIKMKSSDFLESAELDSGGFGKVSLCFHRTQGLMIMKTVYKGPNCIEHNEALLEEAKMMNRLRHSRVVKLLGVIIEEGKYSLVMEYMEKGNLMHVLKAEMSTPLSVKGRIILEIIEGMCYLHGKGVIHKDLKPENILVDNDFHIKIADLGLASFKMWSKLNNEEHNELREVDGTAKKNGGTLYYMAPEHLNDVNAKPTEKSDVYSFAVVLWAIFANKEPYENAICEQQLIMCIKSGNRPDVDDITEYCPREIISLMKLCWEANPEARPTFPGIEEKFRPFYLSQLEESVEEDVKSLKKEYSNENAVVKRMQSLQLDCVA
Test: RIPK1-ADP-Glo enzymatic assay
Conditions: 25 nM GST-RIPK1, 300 μM ATP, 3 μM dephosphorylated-MBP; 30 minutes pre-incubation, 150 minutes reaction; ten-point titration
Would you mind telling me the reported pIC50 of each entry?
// pIC50: -log10(molar conc.)

Task item: For the compound O=C(N1C[C@@H]2C[C@H]1c1cncc(C#CCC3CCOC3)c1O2)C12CCC(F)(CC1)C2 (stereo partly shown) , give its measured pIC50 value.
Reply: 7.19

Task item: For the compound CC(F)(F)C1(C(=O)N2C[C@@H]3C[C@H]2c2cncc(Cl)c2O3)CCC1 , give its measured pIC50 value.
Reply: 7.24

Task item: For the compound CC[C@H](C)CC#Cc1cncc2c1O[C@H]1C[C@@H]2N(C(=O)C(C)(C)C(F)F)C1 , give its measured pIC50 value.
Reply: 7.08

Task item: For the compound Cc1nnc(C#Cc2cncc3c2O[C@H]2C[C@@H]3N(C(=O)C(C)(C)C(F)F)C2)o1 , give its measured pIC50 value.
Reply: 7.05

Task item: For the compound N#Cc1cncc2c1O[C@H]1C[C@@H]2N(C(=O)C2(C#N)CCCC2)C1 , give its measured pIC50 value.
Reply: 6.74

Task item: For the compound N#Cc1cncc2c1O[C@H]1C[C@@H]2N(C(=O)C2(C#N)CCC2)C1 , give its measured pIC50 value.
Reply: 6.89

Task item: For the compound N#Cc1cc(N2CCC(F)(C(=O)N3C[C@@H]4C[C@H]3c3cncc(C#N)c3O4)CC2)ncn1 , give its measured pIC50 value.
Reply: 6.94

Task item: For the compound O=C(N1C[C@@H]2C[C@H]1c1cncc(C#CCO)c1O2)C12CCC(C(F)(F)F)(CC1)C2 , give its measured pIC50 value.
Reply: 7.11

Task item: For the compound CC(C)(C(=O)N1C[C@@H]2C[C@H]1c1cncc(C#CCCc3ccccc3)c1O2)C(F)F , give its measured pIC50 value.
Reply: 6.71

Task item: For the compound CCC(C)(C#N)C(=O)N1C[C@@H]2C[C@H]1c1cncc(C#N)c1S2 (single isomer, unassigned) [Compound 4-9] , give its measured pIC50 value.
Reply: 7.21

Task item: For the compound O=C(N1C[C@@H]2C[C@H]1c1cncc(F)c1O2)C12CCC(CC1)C2 , give its measured pIC50 value.
Reply: 7.43

Task item: For the compound N#Cc1cncc2c1O[C@H]1C[C@@H]2N(C(=O)C2(CC(F)F)CCC2)C1 , give its measured pIC50 value.
Reply: 6.60

Task item: For the compound CC1(C(=O)N2C[C@@H]3C[C@H]2c2cncc(C#N)c2O3)CC2CCC1C2 (stereo partly shown) , give its measured pIC50 value.
Reply: 7.11

Task item: For the compound N#Cc1cncc2c1O[C@H]1C[C@@H]2N(C(=O)C2(F)CCN(C(=O)c3ccccc3)CC2)C1 , give its measured pIC50 value.
Reply: 6.94

Task item: For the compound CC(C)(C(=O)N1C[C@@H]2C[C@H]1c1cncc(C#Cc3ccc(F)cc3F)c1O2)C(F)F , give its measured pIC50 value.
Reply: 7.32

Task item: For the compound CCC(C)(C#N)C(=O)N1C[C@@H]2C[C@H]1c1cncc(C#N)c1O2 (single isomer, unassigned) [Compound 1-113] , give its measured pIC50 value.
Reply: 6.81

Task item: For the compound CC12CC(C(=O)N3C[C@@H]4C[C@H]3c3cncc(C#N)c3O4)(C1)C2 , give its measured pIC50 value.
Reply: 6.69

Task item: For the compound CCC1(C(=O)N2C[C@@H]3C[C@H]2c2cncc(C#N)c2O3)CC1 , give its measured pIC50 value.
Reply: 6.46

Task item: For the compound CC(C)(C(=O)N1C[C@@H]2C[C@H]1c1cncc(C#Cc3cnc4ncnn4c3)c1O2)C(F)F , give its measured pIC50 value.
Reply: 7.14

Task item: For the compound O=C(N1C[C@@H]2C[C@H]1c1cncc(C#Cc3cnccn3)c1O2)C12CCC(C(F)(F)F)(CC1)C2 , give its measured pIC50 value.
Reply: 7.66

Task item: For the compound CC(C)(C(=O)N1C[C@@H]2C[C@H]1c1cncc(C#CCC3CCCCC3)c1O2)C(F)F , give its measured pIC50 value.
Reply: 6.74

Task item: For the compound N#Cc1cncc2c1O[C@H]1C[C@@H]2N(C(=O)C2(F)CCN(c3nccn4ncnc34)CC2)C1 , give its measured pIC50 value.
Reply: 7.13

Task item: For the compound CC(C)(C(=O)N1C[C@@H]2C[C@H]1c1cncc(C#Cc3cccnc3)c1O2)C(F)F , give its measured pIC50 value.
Reply: 7.44

Task item: For the compound COc1cc(N2CCC(F)(C(=O)N3C[C@@H]4C[C@H]3c3cncc(C#N)c3O4)CC2)ncn1 , give its measured pIC50 value.
Reply: 6.65

Task item: For the compound Cc1ccncc1C#Cc1cncc2c1O[C@H]1C[C@@H]2N(C(=O)C23CCC(C(F)(F)F)(CC2)C3)C1 , give its measured pIC50 value.
Reply: 7.85

Task item: For the compound CC(C)C1(C(=O)N2C[C@@H]3C[C@H]2c2cncc(C#N)c2O3)CC1 , give its measured pIC50 value.
Reply: 6.35

Task item: For the compound COc1ccnc(N2CCC(F)(C(=O)N3C[C@@H]4C[C@H]3c3cncc(C#N)c3O4)CC2)n1 , give its measured pIC50 value.
Reply: 7.39

Task item: For the compound Cc1cncc2c1O[C@H]1C[C@@H]2N(C(=O)C(C)(C)C)C1 , give its measured pIC50 value.
Reply: 5.96

Task item: For the compound CC(F)(F)C1(C(=O)N2C[C@@H]3C[C@H]2c2cncc(C#N)c2O3)CCC1 , give its measured pIC50 value.
Reply: 7.26

Task item: For the compound O=C(N1C[C@@H]2C[C@H]1c1cncc(C#Cc3cccnc3)c1O2)C12CCC(F)(CC1)C2 , give its measured pIC50 value.
Reply: 7.92

Task item: For the compound O=C(N1C[C@@H]2C[C@H]1c1cncc(Cl)c1O2)C12CCC(C(F)(F)F)(CC1)C2 , give its measured pIC50 value.
Reply: 8.00
